Origin of the recorded values: the supplement of paper PMC10065799

phosphorylation enrichment listing for selected sequences.
- TEST_SYSTEM: FGFR1 (UniProt P11362)
- Sequence (P11362 whole entry, looked up): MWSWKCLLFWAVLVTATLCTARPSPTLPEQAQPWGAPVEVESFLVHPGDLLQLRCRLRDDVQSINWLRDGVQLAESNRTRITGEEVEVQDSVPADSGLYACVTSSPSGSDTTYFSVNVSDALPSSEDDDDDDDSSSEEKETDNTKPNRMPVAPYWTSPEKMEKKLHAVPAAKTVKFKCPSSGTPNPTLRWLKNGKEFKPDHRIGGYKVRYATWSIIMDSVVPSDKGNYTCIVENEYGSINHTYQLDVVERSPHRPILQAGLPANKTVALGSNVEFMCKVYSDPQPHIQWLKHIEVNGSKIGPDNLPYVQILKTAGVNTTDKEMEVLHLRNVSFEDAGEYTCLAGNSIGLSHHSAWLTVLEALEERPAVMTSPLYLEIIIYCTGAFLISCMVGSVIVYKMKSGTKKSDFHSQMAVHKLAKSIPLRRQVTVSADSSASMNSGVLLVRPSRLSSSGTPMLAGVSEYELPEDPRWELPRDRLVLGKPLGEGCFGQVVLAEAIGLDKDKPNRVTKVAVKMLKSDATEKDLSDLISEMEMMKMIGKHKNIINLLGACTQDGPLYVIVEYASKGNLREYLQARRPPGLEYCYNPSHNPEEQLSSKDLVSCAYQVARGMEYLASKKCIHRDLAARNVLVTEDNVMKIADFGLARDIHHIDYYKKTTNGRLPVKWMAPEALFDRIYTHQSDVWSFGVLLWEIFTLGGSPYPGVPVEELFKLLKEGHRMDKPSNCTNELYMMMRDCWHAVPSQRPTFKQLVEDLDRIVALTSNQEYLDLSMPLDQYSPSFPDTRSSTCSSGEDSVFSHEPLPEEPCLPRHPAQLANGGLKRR
- TEST_DETAILS: phosphorylation enrichment, bacterial display (enrichment ratio); higher = better substrate or ligand; peptides without Tyr show the background;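 note: 11-residue human phosphosite peptides and single-mutation variants displayed on the E. coli surface, counted by deep sequencing, each peptide's frequency after selection divided by its frequency in the unselected input library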;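 note: frequency after pTyr selection over input frequency; kinase dosed for 20-30% of maximal phosphorylation in three min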
Form rule: numeric answer, no unit written next to it.

| SEQ | phosphorylation enrichment |
| --- | --- |
| SSFDTYHLSRE [KIR3DL2_Y253_I252T_YF] | 0.615 |
| ISDNACQFMLT [MYH7_Y162_Y162C_YF] | 0.588 |
| KSMFVYCTPNK [ATP2A2_Y497_S495F] | 0.587 |

With those in mind, consider the next sequence.
Which phosphorylation enrichment value is on record for DTKPVYQNLRQ [BOD1_Y82_A81V] ?
0.511
